TESTED_TARGET: rat GalR2 (Rattus norvegicus)
Sequence (O08726 1-372): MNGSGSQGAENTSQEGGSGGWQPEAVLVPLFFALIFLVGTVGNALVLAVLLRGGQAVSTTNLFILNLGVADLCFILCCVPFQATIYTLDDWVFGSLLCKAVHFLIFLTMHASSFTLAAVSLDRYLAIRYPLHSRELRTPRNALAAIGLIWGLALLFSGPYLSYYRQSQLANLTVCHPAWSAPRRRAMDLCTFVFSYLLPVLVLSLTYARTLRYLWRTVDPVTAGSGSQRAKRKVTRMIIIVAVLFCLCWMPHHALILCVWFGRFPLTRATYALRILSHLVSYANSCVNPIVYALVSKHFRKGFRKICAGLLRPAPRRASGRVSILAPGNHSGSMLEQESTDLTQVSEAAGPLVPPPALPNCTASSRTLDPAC
Square brackets hold non-standard residues; d marks the D form. Peptide text beside a SMILES is read from it. * marks the point of attachment. Fmoc = O=C(OCC1c2ccccc2-c2ccccc21)*; Cha = N[C@@H](CC1CCCCC1)C(=O)O; AMC = Cc1cc(=O)oc2cc(N*)ccc12
MEASURED_METRIC: Ki (µM)
Use µM as the unit, but write only the number.

Form field, Ki with rat GalR2 (Rattus norvegicus), item Cc1cc(=O)oc2cc(NC(=O)[C@H](CCCCN)NC(=O)[C@H](CC3CCCCC3)NC(=O)OCC3c4ccccc4-c4ccccc43)ccc12 [galnon] (Fmoc-[Cha]-Lys-{AMC}) : 34.1
